- Target Entity: PBR (Rattus norvegicus, UniProt P16257)
- Construct: OB is known to express higher levels of PBR compared with other areas of rat brain; from tissue; host or cells: living Wistar rats; olfactory bulb and striatum sampled
- Sequence (P16257 whole entry): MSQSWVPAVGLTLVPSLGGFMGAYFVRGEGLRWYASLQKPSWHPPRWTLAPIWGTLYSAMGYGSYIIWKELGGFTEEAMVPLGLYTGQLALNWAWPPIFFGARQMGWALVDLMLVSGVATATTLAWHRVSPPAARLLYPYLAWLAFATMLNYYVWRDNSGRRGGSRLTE
- Experiment Notes: In vivo biodistribution model: OB:striatum uptake
- Set-up: species or system Wistar rats
- Details: injection via lateral tail vein, 2, 10, 30 or 60 min, in words, compared with PBR06
Endpoint: OB:striatum uptake (ratio of uptake in olfactory bulb compared to striatum)

O=C(C[18F])N(Cc1cccc2c1OCO2)c1ccccc1Oc1ccccc1 = comparable with PBR06
O=C(C[18F])N(Cc1cccc2c1OCCO2)c1ccccc1Oc1ccccc1 = comparable with PBR06
